- Target or system: T1, Bzz1-2, P38822
- T1 sequence (P38822 568-633, looked up): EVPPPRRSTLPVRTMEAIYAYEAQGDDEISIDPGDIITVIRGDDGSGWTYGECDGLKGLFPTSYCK
- Assay name: SPOT array
- Reported conditions: median of control spots 4538
Metric: SPOT intensity

Here is how some binders turned out for SPOT intensity.
1. RSKRLFPVRPMATAH | 13
2. HHNRRKPLEVYFKAT | 0
3. HHKRRPTTIDVPGLT | 13
4. RFKRHRLEFPFNESE | 7
5. KTRLRPAFIQQLWSS | 0

(1) QHQQRQPKRPKRYSL
(2) QLMKNLPKIPLLNDI
(3) LTRRFPFLFPFDTRM
(4) RAPPPVPKKPSSRIA
Ask: Write the entries in order, lowest recorded SPOT intensity first. Write out the labels following the order that was asked for.
Reply: 3, 2, 1, 4
(3: 3, 2: 7, 1: 17, 4: 590)

(1) TKRKRPARLIFYDSK
(2) NMLSRPRLAKLPSIR
(3) YSRKKLPVVLSKMTL
(4) RRARRQMGIPTISQV
(5) GKFIPSRPAPKPPSS
Ask: Place the items in sequence of falling SPOT intensity. As an answer, provide the labels arranged in the order called for.
Reply: 5, 4, 2, 1, 3
(5: 52, 4: 25, 2: 11, 1: 5, 3: 0)

(1) APKHAPPPVPNETDN
(2) NAGIRPKFILALNDE
(3) KRKRRLPVSEDTNTK
Ask: Give the ascending ranking of the items by reported SPOT intensity. Answer format: the labels, ordered as requested.
Reply: 1, 3, 2
